target: HELB WT (Homo sapiens, UniProt Q8NG08 1-1087); assay: fluorescence anisotropy; 10 mM Mg(OAc)2, no nucleotide; 25 mM HEPES pH 7.5, 10 mM KOAc, 10 mM Mg(OAc)2, 0.1 mM EDTA, 2 mM beta-mercaptoethanol, 0.1 mg/ml BSA, 1 nM DNA, 30 min, room temperature; conditions: protein: recombinant; tags: none (His-SUMO cleaved by Ulp1); label: 3'-6-carboxyfluorescein; single strand
Sequence (Q8NG08 whole entry): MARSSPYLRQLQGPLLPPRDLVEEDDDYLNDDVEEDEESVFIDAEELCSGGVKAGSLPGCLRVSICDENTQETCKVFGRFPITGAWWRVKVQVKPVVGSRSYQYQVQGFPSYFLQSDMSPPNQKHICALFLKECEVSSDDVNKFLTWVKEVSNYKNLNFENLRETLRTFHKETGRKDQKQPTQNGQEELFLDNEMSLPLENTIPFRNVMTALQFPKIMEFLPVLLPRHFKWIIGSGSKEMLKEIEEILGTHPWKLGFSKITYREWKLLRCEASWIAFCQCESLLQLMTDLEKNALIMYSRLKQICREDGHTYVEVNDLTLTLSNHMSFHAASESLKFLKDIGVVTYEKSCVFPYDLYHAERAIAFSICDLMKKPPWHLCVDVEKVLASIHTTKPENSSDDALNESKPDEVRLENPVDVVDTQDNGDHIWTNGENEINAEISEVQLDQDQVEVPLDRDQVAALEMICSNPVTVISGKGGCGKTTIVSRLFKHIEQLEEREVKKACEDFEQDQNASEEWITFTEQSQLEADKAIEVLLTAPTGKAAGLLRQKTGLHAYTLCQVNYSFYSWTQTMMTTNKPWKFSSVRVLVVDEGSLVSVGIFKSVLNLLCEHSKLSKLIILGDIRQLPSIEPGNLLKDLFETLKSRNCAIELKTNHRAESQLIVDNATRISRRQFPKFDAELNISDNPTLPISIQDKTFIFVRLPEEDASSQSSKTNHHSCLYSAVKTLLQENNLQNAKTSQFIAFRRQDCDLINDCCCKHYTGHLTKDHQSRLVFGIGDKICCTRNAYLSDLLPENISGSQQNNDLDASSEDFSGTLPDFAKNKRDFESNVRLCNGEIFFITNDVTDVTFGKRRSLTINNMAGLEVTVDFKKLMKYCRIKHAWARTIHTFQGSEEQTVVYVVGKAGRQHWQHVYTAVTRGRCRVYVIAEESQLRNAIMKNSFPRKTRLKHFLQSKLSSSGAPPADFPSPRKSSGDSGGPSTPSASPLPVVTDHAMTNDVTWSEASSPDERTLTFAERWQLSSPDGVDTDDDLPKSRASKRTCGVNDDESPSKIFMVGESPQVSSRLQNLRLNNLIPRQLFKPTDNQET
READOUT: Kd (nM)
Respond with the bare value in nM.

Query :: Report Kd for TTTTTTTTTTTTTTTT (ssDNA) [3'-FAM-T16] please.
Result :: 3.4
